Measured values drawn from paper PMC12024912 for this set.

Target: rat UT-A1 (Rattus norvegicus, UniProt Q62668)
Sequence (Q62668 whole entry): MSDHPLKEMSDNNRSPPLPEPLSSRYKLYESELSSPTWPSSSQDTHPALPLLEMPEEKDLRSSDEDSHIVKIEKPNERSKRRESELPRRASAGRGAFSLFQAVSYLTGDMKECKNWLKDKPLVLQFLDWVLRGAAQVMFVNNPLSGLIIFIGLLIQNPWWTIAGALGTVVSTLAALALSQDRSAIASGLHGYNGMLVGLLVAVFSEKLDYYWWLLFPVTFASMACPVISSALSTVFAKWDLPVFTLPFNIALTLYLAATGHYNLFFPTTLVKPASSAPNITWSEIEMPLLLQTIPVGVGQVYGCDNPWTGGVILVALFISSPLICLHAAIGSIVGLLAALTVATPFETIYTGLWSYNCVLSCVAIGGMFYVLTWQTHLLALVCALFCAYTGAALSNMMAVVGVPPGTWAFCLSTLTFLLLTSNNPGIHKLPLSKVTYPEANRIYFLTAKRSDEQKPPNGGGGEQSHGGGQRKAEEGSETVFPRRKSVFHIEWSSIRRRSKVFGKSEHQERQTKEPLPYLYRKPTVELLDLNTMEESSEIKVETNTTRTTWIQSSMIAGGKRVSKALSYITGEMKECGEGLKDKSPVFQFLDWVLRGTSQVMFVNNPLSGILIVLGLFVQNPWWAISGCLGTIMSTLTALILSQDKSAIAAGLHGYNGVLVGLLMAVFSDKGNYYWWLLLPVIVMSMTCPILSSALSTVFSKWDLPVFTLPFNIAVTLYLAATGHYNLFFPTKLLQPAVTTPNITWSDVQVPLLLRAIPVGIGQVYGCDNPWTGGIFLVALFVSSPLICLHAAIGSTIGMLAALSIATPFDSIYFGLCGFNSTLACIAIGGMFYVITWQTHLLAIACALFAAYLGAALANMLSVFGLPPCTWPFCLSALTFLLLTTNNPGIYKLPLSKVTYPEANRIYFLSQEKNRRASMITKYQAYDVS
Test: Transwell assay of UT-A1 inhibition in UT-A1-MDCK cells
Conditions: read-out: IC50 against UT-A1-mediated urea permeability
readout-label: IC50 (nM)

1. CC(=O)c1ccc(C(=O)Nc2cccc(NS(=O)(=O)c3ccccc3)c2)o1 : 18

---

Target: UT-B (Mus musculus)
Construct: endogenous in cells; host or cells: erythrocytes from wild-type C57BL/6 mice
Sequence (Q8VHL0 whole entry): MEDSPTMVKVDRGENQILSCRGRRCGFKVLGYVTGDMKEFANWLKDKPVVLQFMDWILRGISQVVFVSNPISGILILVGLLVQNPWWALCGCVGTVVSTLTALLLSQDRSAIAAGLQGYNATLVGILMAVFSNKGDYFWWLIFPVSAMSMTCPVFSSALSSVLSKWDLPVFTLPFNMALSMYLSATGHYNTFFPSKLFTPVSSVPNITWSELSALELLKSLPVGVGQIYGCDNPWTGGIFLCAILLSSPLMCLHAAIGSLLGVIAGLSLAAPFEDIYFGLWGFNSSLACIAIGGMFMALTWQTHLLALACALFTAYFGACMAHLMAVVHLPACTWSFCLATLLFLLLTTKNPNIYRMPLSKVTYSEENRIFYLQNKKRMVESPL
Experiment: Erythrocyte lysis assay for UT-B inhibition, mouse erythrocytes
Type: cell-based
Settings: erythrocyte lysis model; mouse; n = 3, means; read-out: IC50 (μM) Mouse
readout-label: IC50 (µM)

1. CC(=O)c1ccc(C(=O)Nc2ccc(NS(=O)(=O)c3ccccc3)cc2)o1 : 0.23
2. CC(=O)c1ccc(C(=O)Nc2cccc(NS(=O)(=O)c3ccccc3)c2)o1 : 0.05
3. CC(=O)c1ccc(C(=O)Nc2ccc(S(=O)(=O)Nc3ccc(OCCN4CCOCC4)cc3)cc2)o1 : 2.55
4. CC(=O)c1ccc(C(=O)Nc2ccc(S(=O)(=O)Nc3ccccc3)cc2)o1 : 0.23
5. CC(=O)c1ccc(C(=O)Nc2ccc(C(=O)NCCN(C)C)cc2)o1 [Compound E2] : 2.41
6. CC(=O)c1ccc(C(=O)Nc2ccc(NS(=O)(=O)c3ccccc3)c(O)c2)o1 : 0.18
7. CCN1CCN(c2ccc(NC(=O)c3ccc(C(C)=O)o3)cc2)CC1 [Compound E1] : 0.86
8. CC(=O)c1ccc(C(=O)Nc2ccc(S(=O)(=O)Nc3ccc(OCCCN4CCOCC4)cc3)cc2)o1 : 4.07

---

Assay: Pharmacokinetic study in rats
Type: in vivo, rat
Details: male, SD, rat, plasma, iv, 1 mg/kg, single i.v. 1 mg/kg, n = 5
readout-label: half-life (h)

1) CC(=O)c1ccc(C(=O)Nc2cccc(NS(=O)(=O)c3ccccc3)c2)o1 [Compound E3] : 1.9

---

Assay: Pharmacokinetic study in rats
Type: in vivo, rat
Details: male, SD, rat, plasma, po, single p.o. 4 mg/kg, n = 5, read-out: C max
readout-label: Cmax (ng/mL)

1) CC(=O)c1ccc(C(=O)Nc2cccc(NS(=O)(=O)c3ccccc3)c2)o1 : 170

---

Test: Acute oral toxicity test in mice
Format: in vivo
Conditions: both sexes, mouse, in vivo, 5000 mg/kg; mice; oral; 14-day acute toxicity assay
readout-label: LD50 at 14 d

1. CC(=O)c1ccc(C(=O)Nc2cccc(NS(=O)(=O)c3ccccc3)c2)o1 : > 5000 mg/kg

---

Molecular target: hERG K+ channel (Homo sapiens)
Sequence (Q12809 whole entry): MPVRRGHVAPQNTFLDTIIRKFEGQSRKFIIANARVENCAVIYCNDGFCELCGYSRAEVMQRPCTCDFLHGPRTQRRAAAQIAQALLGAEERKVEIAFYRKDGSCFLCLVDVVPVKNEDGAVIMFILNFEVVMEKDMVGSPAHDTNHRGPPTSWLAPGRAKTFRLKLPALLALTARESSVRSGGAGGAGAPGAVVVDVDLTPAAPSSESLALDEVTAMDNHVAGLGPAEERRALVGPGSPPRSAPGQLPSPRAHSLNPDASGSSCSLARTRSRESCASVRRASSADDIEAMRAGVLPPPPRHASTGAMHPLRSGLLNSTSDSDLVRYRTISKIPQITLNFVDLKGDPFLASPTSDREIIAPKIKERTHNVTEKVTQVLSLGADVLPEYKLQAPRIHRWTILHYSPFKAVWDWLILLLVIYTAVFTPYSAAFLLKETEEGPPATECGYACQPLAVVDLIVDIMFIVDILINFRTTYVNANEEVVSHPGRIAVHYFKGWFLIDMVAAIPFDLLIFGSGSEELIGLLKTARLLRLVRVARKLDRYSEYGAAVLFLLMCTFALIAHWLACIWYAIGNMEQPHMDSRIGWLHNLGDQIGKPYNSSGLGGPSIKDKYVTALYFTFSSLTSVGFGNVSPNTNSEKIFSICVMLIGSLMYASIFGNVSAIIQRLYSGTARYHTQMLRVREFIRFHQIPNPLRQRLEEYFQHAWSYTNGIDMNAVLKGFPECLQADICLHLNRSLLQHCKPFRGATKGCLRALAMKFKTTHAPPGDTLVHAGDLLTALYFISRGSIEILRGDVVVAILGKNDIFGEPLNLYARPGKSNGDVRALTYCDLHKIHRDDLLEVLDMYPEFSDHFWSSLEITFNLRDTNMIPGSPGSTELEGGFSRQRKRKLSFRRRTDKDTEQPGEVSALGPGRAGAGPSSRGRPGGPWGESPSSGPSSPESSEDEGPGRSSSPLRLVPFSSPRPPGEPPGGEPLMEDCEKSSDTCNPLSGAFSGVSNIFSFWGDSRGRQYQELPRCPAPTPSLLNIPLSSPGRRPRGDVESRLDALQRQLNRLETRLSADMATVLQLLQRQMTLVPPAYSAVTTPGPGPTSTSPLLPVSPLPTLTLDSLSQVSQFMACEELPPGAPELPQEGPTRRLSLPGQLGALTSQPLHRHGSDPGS
Assay: hERG K+ channel tail current, QPatch, CHO-hERG cells
pIC50: −log10 of the molar value.
readout-label: pIC50

1. CC(=O)c1ccc(C(=O)Nc2cccc(NS(=O)(=O)c3ccccc3)c2)o1 [Compound E3] : < 4.48

---

Molecular target: UT-B (Homo sapiens, UniProt Q13336)
Construct: endogenous in cells
Sequence (Q13336 whole entry): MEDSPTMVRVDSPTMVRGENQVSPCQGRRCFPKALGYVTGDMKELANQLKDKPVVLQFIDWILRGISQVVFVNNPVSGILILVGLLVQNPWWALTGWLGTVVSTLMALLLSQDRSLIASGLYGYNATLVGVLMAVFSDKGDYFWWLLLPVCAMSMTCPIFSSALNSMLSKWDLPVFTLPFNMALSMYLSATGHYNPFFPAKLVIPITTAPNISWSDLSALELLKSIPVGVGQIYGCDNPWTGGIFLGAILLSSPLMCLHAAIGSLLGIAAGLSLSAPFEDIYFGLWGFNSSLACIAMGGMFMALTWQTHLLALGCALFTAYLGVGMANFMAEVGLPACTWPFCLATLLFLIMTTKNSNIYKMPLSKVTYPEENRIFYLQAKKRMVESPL
Experiment: Erythrocyte lysis assay for UT-B inhibition, human erythrocytes
Conditions: red blood cell lysis assay; read-out: IC50 for UT-B-promoted urea transport, humans
readout-label: IC50 (nM)

1) CC(=O)c1ccc(C(=O)Nc2cccc(NS(=O)(=O)c3ccccc3)c2)o1 : 25

---

Test: Subacute oral toxicity test in mice
Format: in vivo
Details: male, mouse, in vivo, 1000 mg/kg, oral, 30 d, read-out: no observed adverse effect level (NOAEL)
readout-label: NOAEL at 30 d (mg/kg/day)

1) CC(=O)c1ccc(C(=O)Nc2cccc(NS(=O)(=O)c3ccccc3)c2)o1 : 1000

---

Assay: Pharmacokinetic study in rats
Format: in vivo, rat
Details: male, SD, rat, plasma, po, single p.o. 4 mg/kg, n = 5
readout-label: AUC(0-t) (ng·h/mL)

1) CC(=O)c1ccc(C(=O)Nc2cccc(NS(=O)(=O)c3ccccc3)c2)o1 : 919

---

Assay: Blood stability, human
Assay type: in vitro ADME
Settings: plasma, n=3
readout-label: remaining at 1 μmol/L (%)

1. CC(=O)c1ccc(C(=O)Nc2cccc(NS(=O)(=O)c3ccccc3)c2)o1 : 54.1

---

Assay: Intestinal microbiota stability, rat
Format: in vitro ADME
Conditions: Sprague-Dawley, colon microbiota suspension, n=3, read-out: Rat colon microbiota (remaining %)
readout-label: remaining at 1 μmol/L (%)

1) CC(=O)c1ccc(C(=O)Nc2cccc(NS(=O)(=O)c3ccccc3)c2)o1 [Compound E3] : 82.3

---

Assay: Pharmacokinetic study in rats
Type: in vivo, rat
Settings: male, SD, rat, plasma, iv, single i.v. 1 mg/kg, n = 5
readout-label: AUC(0-inf) (ng·h/mL)

1. CC(=O)c1ccc(C(=O)Nc2cccc(NS(=O)(=O)c3ccccc3)c2)o1 : 1120

---

Test: Liver homogenate metabolic stability, rat
Format: in vitro ADME
Details: rat, liver homogenate; 60 min incubation, 37 °C; n=3
readout-label: remaining at 1 h (%)

1) CC(=O)c1ccc(C(=O)Nc2cccc(NS(=O)(=O)c3ccccc3)c2)o1 : 69

---

Test: Pharmacokinetic study in rats
Type: in vivo, rat
Details: male, SD, rat, plasma, po, 4 mg/kg, single p.o. 4 mg/kg, n = 5
readout-label: MRT

1) CC(=O)c1ccc(C(=O)Nc2cccc(NS(=O)(=O)c3ccccc3)c2)o1 : ~6.1 h

---

Target: rat UT-B (Rattus norvegicus)
Sequence (P97689 whole entry): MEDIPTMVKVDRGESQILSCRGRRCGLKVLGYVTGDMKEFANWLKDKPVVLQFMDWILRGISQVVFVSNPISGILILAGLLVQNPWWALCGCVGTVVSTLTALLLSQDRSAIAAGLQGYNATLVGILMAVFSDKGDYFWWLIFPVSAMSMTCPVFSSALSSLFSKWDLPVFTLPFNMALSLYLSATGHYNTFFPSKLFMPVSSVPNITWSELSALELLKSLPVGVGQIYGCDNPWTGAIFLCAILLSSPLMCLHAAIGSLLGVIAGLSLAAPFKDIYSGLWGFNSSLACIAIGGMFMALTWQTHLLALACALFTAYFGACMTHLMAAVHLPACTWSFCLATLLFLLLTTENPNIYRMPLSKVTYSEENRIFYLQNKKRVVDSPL
Test: Transwell assay of UT-B inhibition in UT-B-MDCK cells
Details: read-out: IC50 against UT-B-mediated urea permeability
pIC50: −log10 of the molar value.
readout-label: pIC50

1) CC(=O)c1ccc(C(=O)Nc2cccc(NS(=O)(=O)c3ccccc3)c2)o1 [Compound E3] : 7.24

---

Experiment: Intestinal microbiota stability, mouse
Format: in vitro ADME
Conditions: colon microbiota suspension, n=3, read-out: Mouse colon microbiota (remaining %)
readout-label: remaining at 4 h, 1 μmol/L

1. CC(=O)c1ccc(C(=O)Nc2cccc(NS(=O)(=O)c3ccccc3)c2)o1 : 89.3%

---

Target: UT-B (Rattus norvegicus)
Construct: endogenous in cells; host or cells: erythrocytes from male SD rats
Sequence (P97689 whole entry): as the sequence (P97689 whole entry) above
Experiment: Erythrocyte lysis assay for UT-B inhibition, rat erythrocytes
Assay type: cell-based
Conditions: erythrocyte lysis model; rat; n = 3, means; read-out: IC50 (μM) Rat
# key: entry, value: IC50
readout-label: IC50 (µM)

1. CC(=O)c1ccc(C(=O)Nc2ccc(S(=O)(=O)Nc3ccccc3)cc2)o1 : 0.09
2. CC(=O)c1ccc(C(=O)Nc2cccc(NS(=O)(=O)c3ccccc3)c2)o1 : 0.01
3. CC(=O)c1ccc(C(=O)Nc2ccc(NS(=O)(=O)c3ccccc3)cc2)o1 : 0.06
4. CC(=O)c1ccc(C(=O)Nc2ccccc2NS(=O)(=O)c2ccccc2)o1 : 6.46
5. CC(=O)c1ccc(C(=O)Nc2ccc(S(=O)(=O)Nc3ccc(OCCCN4CCOCC4)cc3)cc2)o1 : 1.75
6. CCN1CCN(c2ccc(NC(=O)c3ccc(C(C)=O)o3)cc2)CC1 [Compound E1] : 0.32
7. CC(=O)c1ccc(C(=O)Nc2ccc(C(=O)NCCN(C)C)cc2)o1 [Compound E2] : 0.4
8. CC(=O)c1ccc(C(=O)Nc2ccc(S(=O)(=O)Nc3ccc(OCCN4CCOCC4)cc3)cc2)o1 : 0.77
9. CC(=O)c1ccc(C(=O)Nc2ccc(NS(=O)(=O)c3ccccc3)c(O)c2)o1 : 0.05

---

Assay: Pharmacokinetic study in rats
Type: in vivo, rat
Settings: male, SD, rat, plasma, iv, single i.v. 1 mg/kg, n = 5, read-out: C max
readout-label: Cmax (ng/mL)

1. CC(=O)c1ccc(C(=O)Nc2cccc(NS(=O)(=O)c3ccccc3)c2)o1 : 2540

---

Assay: Pharmacokinetic study in rats
Assay type: in vivo, rat
Settings: male, SD, rat, plasma, po, 4 mg/kg, single p.o. 4 mg/kg, n = 5
readout-label: Tmax

1) CC(=O)c1ccc(C(=O)Nc2cccc(NS(=O)(=O)c3ccccc3)c2)o1 [Compound E3] : ≤ 2 h

---

Assay: Intestinal microbiota stability, mouse
Type: in vitro ADME
Settings: small intestine microbiota suspension, n=3, read-out: Mouse small intestine microbiota (remaining %)
readout-label: remaining at 4 h, 1 μmol/L (%)

1) CC(=O)c1ccc(C(=O)Nc2cccc(NS(=O)(=O)c3ccccc3)c2)o1 [Compound E3] : 87.3

---

Assay: Blood stability, mouse
Format: in vitro ADME
Settings: plasma, n=3
readout-label: remaining at 1 μmol/L (%)

1) CC(=O)c1ccc(C(=O)Nc2cccc(NS(=O)(=O)c3ccccc3)c2)o1 : 45.3

---

Assay: Liver homogenate metabolic stability, mouse
Type: in vitro ADME
Details: mouse, liver homogenate; 60 min incubation, 37 °C; n=3
readout-label: remaining at 1 h

1. CC(=O)c1ccc(C(=O)Nc2cccc(NS(=O)(=O)c3ccccc3)c2)o1 [Compound E3] : 39.8%

---

Experiment: Blood stability, rabbit
Type: in vitro ADME
Settings: plasma, n=3
Experimental: Plasma from mice, rats, rabbits, and humans was obtained from blood after centrifugation at 3000 r/min for 10 min. Simulated gastric fluid (SGF, pH = 1, containing pepsin) and simulated intestinal fluid (SIF, pH = 6.8, containing trypsin) were configured previously in the experiments. […] Analyte-to-IS peak area ratios quantified residual percentages via Equation (2):Remaining% = (E3peak area/ISpeak area at different time)/(E3peak area/ISpeak area at 0 min) × 100%.(2)
readout-label: remaining at 1 μmol/L (%)

1) CC(=O)c1ccc(C(=O)Nc2cccc(NS(=O)(=O)c3ccccc3)c2)o1 : 35.7
